test system: Fibroblast; assay: Incucyte cell viability with human fibroblast; type: toxicity, cell-based; conditions: 24 h, 10 µM, compound concentration 10 uM, replicate number 1, timepoint 24 hours; note: filed as whole numbers so only -1 and 0 and 1 occur
readout.label: Growth Rate

# N#Cc1ccccc1OCC(O)CNCCNC(=O)Nc1ccccc1 (stereo not drawn) with Fibroblast: Growth Rate is 0

Item Cl.Cl.Nc1ncnc2c1c(-c1cccc(OCc3ccccc3)c1)cn2[C@H]1C[C@@H](CN2CCC2)C1 ; assay system Fibroblast; Growth Rate reported as 0

Lab note: compound CN1C(=O)[C@@H](N2CCc3c(nn(Cc4ccccc4)c3Br)C2=O)COc2ccccc21 tested on Fibroblast; recorded Growth Rate was 0

Sample CN(C(=O)Cc1ccc(Cl)c(Cl)c1)C(CN1CCCC1)c1cccc(OCC(=O)O)c1.Cl (stereo not drawn) , system: Fibroblast. Its Growth Rate is 0

Known value: Fibroblast Growth Rate of the compound O=C(Nc1cccnc1)c1cc(-c2ccnc(F)c2)ccc1OCc1ccccc1 equals 0

Form field Growth Rate for item O=C(NCc1ccc(F)cc1)C1CCN(S(=O)(=O)c2cc(Cl)cc(Cl)c2)CC1 on Fibroblast: 1

Reading of Growth Rate for CCC(=O)N[C@@H]1CC[C@H](C(=O)N(C)c2ccc(-c3nc4ccccc4o3)cc2)C1 with Fibroblast: 1

Query CO[C@H]1/C=C/O[C@@]2(C)Oc3c(C)c(O)c4c(O)c(c(/C=N/N5CCN(C)CC5)c(O)c4c3C2=O)NC(=O)/C(C)=C\C=C\[C@H](C)[C@H](O)[C@@H](C)[C@@H](O)[C@@H](C)[C@H](OC(C)=O)[C@@H]1C on Fibroblast; Growth Rate returned: 0

GET /values?item= CCC1(C2=NCCN2)Cc2ccccc2O1 (stereo not drawn) &system= Fibroblast returns Growth Rate: 0

Entry Nc1nc2c(c(N3CCNCC3)n1)CCC1=C2[C@@H]2CCCC[C@@H]2O1 ; assay system Fibroblast; Growth Rate recorded at 0

Item CCn1c(-c2nonc2N)nc2cnc(Oc3cccc(NC(=O)c4ccc(OCCN5CCOCC5)cc4)c3)cc21 [GSK-269962A] ; assay system Fibroblast; Growth Rate reported as 1

Here CC(C)CC(=O)N1CCc2nc(-c3ccc(Br)cc3)nc(N(C)Cc3ccccc3)c2C1 was tested on Fibroblast, and its Growth Rate came to 1

Item CCN1CCN(Cc2ccc(NC(=O)c3ccc(C)c(Oc4ccnc5[nH]ccc45)c3)cc2C(F)(F)F)CC1.Cl.Cl.Cl.O was tested on Fibroblast; the reported Growth Rate is 0

* * *

Consider the following compounds; for each one, report its Growth Rate.
system: HEK-293T; test: Incucyte cell viability with HEK293T; type: toxicity, cell-based; settings: human, 0 h, 10 µM, compound concentration 10 uM, replicate number 1, timepoint 0 hours; note: filed as whole numbers so only -1 and 0 and 1 occur
Please reply with the number alone, leaving off any unit.

For record CCCCC[C@H](O)/C=C/[C@@H]1[C@@H](C/C=C\CCCC(=O)O)[C@@H](O)C[C@H]1O the listed Growth Rate is 1

Growth Rate reported for this compound CCCn1c(=O)c2[nH]c(C34CC5CC(CC3C5)C4)nc2n(CCC)c1=O : 0

Growth Rate in this record for O=C(O)c1ccc2cc(-c3ccc(O)c(C45CC6CC(CC(C6)C4)C5)c3)ccc2c1 : 1

Entry CCC(=O)O[C@]1(C(=O)SCF)[C@H](C)C[C@H]2[C@@H]3C[C@H](F)C4=CC(=O)C=C[C@]4(C)[C@@]3(F)[C@@H](O)C[C@@]21C [FLUTICASONE PROPIONATE] — recorded Growth Rate = 1

Short answer for CN1C(=O)[C@@H](N2CCc3c(nn(Cc4ccccc4)c3Br)C2=O)COc2ccccc21 : Growth Rate was 0

Input O=C(NOC[C@H](O)CO)c1ccc(F)c(F)c1Nc1ccc(I)cc1F . Output Growth Rate: 0

Briefly, Growth Rate measured for CC(=O)N1CCC(c2ccc(C(=O)NC3=NCCN3)cc2C(F)(F)F)CC1 : 1

* * *

system: HEK-293T; experiment: Incucyte cell viability with HEK293T; format: toxicity, cell-based; settings: human, 6 h, 10 µM, compound concentration 10 uM, replicate number 1, timepoint 6 hours; note: filed as whole numbers so only -1 and 0 and 1 occur
readout.label: Growth Rate
Just the number, please, no unit attached.

For record CCCCc1nc2ccc(NC(=O)NC3CCCCC3)cc2n1Cc1ccc(-c2ccccc2C(=O)O)cc1 the listed Growth Rate is 0

Kindly note the recorded Growth Rate for CS(=O)(=O)c1cc(C2(NC(=O)c3cncc4c3cnn4-c3ccc(F)cc3)CC2)ccn1 , which is 1

The compound listed as NS(=O)(=O)c1cc(NC(=O)C2(c3ccccc3Cl)CC2)ccc1Oc1cccc(Cl)c1 shows Growth Rate equal to 0

Short answer for N#CC1(c2ccccn2)CCN(Cc2cc(C(=O)N3CCCC3)c(=O)n3ccccc23)CC1 : Growth Rate was 1

get_value(item= O=C(O)CC1CCC2(CC1)CCN(c1cc(OC(F)(F)F)ccc1Cl)CC2 , readout=Growth Rate) returns 1

Per the records, this compound ( O=C(c1ccc(F)c(F)c1Nc1ccc(I)cc1F)N1CC(O)([C@@H]2CCCCN2)C1 ) has Growth Rate equal to 0

Sample CN(C)C/C=C/C(=O)Nc1cc2c(Nc3ccc(F)c(Cl)c3)ncnc2cc1O[C@H]1CCOC1.O=C(O)/C=C\C(=O)O.O=C(O)/C=C\C(=O)O [AFATINIB DIMALEATE] ; Growth Rate observed: 0

Kindly note the recorded Growth Rate for CC(=O)[C@@]1(O)CC[C@H]2[C@@H]3C[C@H](C)C4=CC(=O)CC[C@]4(C)[C@H]3CC[C@@]21C , which is 0

Lab note: measured Growth Rate of CC(=O)c1cc(-c2cc(C(=O)NC3CC3)ccc2C)c2ncccn12 was 0

response.value for Nc1nc2c(c(N3CCNCC3)n1)CCC1=C2[C@@H]2CCCC[C@@H]2O1 (field: Growth Rate) = 1

* * *

test system: HEK-293T; experiment: Incucyte cell viability with HEK293T; type: toxicity, cell-based; conditions: human, 0 h, 10 µM, compound concentration 10 uM, replicate number 1, timepoint 0 hours; note: filed as whole numbers so only -1 and 0 and 1 occur
readout.label: Growth Rate
Form rule: numeric answer, no unit written next to it.

Sure, the documented Growth Rate for Cc1c(Oc2ccc(F)cc2)c(OC(C)C)nn1-c1ccc(C2CC2)cn1 is 0

Input Nc1nc(NCc2ccccc2)nc(-c2cccc(CO)c2)n1 . Output Growth Rate: 0

Sample N#Cc1ccc(Nc2ccc3[nH]c(=O)[nH]c3c2)c(Cl)c1 [TP-021n] ; Growth Rate observed: 0

Entry under test: N#CC1(c2ccccn2)CCN(Cc2cc(C(=O)N3CCCC3)c(=O)n3ccccc23)CC1 . Its Growth Rate was 1

For record C[C@H](c1ccnc(Nc2nc3ccc(-c4cc(N(C)C)ncn4)cc3[nH]2)c1)N1CCN(C(=O)CC(F)(F)F)CC1 the listed Growth Rate is 0

Entry CN(CCOc1ccc(C[C@H](Nc2ccccc2C(=O)c2ccccc2)C(=O)O)cc1)c1ccccn1.O ; Growth Rate = 1

* * *

tested on: U2OS; assay: Incucyte cell viability with U2OS; assay type: toxicity, cell-based; details: human, 24 h, 10 µM, compound concentration 10 uM, replicate number 1, timepoint 24 hours; note: filed as whole numbers so only -1 and 0 and 1 occur
readout.label: Growth Rate
Write no unit; give the number alone.

Reported Growth Rate for CO[C@@H]1COCC[C@@H]1N[C@@H]1CC[C@@](C(=O)N2CCc3ncc(C(F)(F)F)cc3C2)(C(C)C)C1 [MK-0812] was 1

Reported Growth Rate for CS(=O)(=O)N1CCN(Cc2cc3nc(-c4cccc5[nH]ncc45)nc(N4CCOCC4)c3s2)CC1 [PICTILISIB] was 0

// Growth Rate value for CCCc1c(-c2ccc(O)cc2)nn(-c2ccc(O)cc2)c1-c1ccc(O)cc1 [PROPYLPYRAZOLETRIOL] : 1

Per the record, CN(C)C/C=C/C(=O)Nc1cc2c(Nc3ccc(F)c(Cl)c3)ncnc2cc1O[C@H]1CCOC1.O=C(O)/C=C\C(=O)O.O=C(O)/C=C\C(=O)O [AFATINIB DIMALEATE] has Growth Rate of 0

The value of Growth Rate measured for the compound Cc1nc(Cc2cccc(C(F)(F)F)c2)sc1-c1ccc(C(N)=O)nc1 [TP-024n] turned out to be 0

compound CC1=C(C#N)C(c2ccc3c(c2)c(NC(=O)c2ccccc2C)nn3C)C(C#N)=C(C)N1 [BAY-974] , Growth Rate observed: 1

Field Growth Rate (entry O=C(NC[C@H](O)CN1CCc2ccccc2C1)c1ccnc(NC2CCC2)c1 ) reads 0

// NS(=O)(=O)c1cc(NC(=O)C2(c3ccccc3Cl)CC2)ccc1Oc1cccc(Cl)c1 [BAY-207] : Growth Rate value = 1

The reported value for CCC1(C2=NCCN2)Cc2ccccc2O1 (centres undefined) [EFAROXAN] in terms of Growth Rate is 1

* * *

test system: Fibroblast; test: Multiplex assay against human fibroblast; format: toxicity, cell-based; conditions: 48 h, 10 µM, compound concentration 10 uM, replicate 1
readout.label: Population Hoechst High Intensity Objects (%)
State just the number; it will be interpreted in %.

response.value for CCn1c(-c2nonc2N)nc2cnc(Oc3cccc(NC(=O)c4ccc(OCCN5CCOCC5)cc4)c3)cc21 [GSK-269962A] (field: Population Hoechst High Intensity Objects (%)) = 20

// field: Population Hoechst High Intensity Objects (%); key: Nc1ccc(C(=O)Nc2cccc(-c3nc(N4CCOCC4)c4oc5ncccc5c4n3)c2)cn1 ; value = 49

Memo: CCc1cc2c(cc1CC)CC(NC[C@H](O)c1ccc(O)c3[nH]c(=O)ccc13)C2 , reported Population Hoechst High Intensity Objects (%): 51

Data point: O=C(O)c1ccc2cc(-c3ccc(O)c(C45CC6CC(CC(C6)C4)C5)c3)ccc2c1 ; Population Hoechst High Intensity Objects (%) = 20
